Every entry's value here was drawn from patent US20230159580A1.

Molecular target: Z-AAT (Homo sapiens, UniProt P01009, E366K)
Sequence (P01009 25-418 E366K): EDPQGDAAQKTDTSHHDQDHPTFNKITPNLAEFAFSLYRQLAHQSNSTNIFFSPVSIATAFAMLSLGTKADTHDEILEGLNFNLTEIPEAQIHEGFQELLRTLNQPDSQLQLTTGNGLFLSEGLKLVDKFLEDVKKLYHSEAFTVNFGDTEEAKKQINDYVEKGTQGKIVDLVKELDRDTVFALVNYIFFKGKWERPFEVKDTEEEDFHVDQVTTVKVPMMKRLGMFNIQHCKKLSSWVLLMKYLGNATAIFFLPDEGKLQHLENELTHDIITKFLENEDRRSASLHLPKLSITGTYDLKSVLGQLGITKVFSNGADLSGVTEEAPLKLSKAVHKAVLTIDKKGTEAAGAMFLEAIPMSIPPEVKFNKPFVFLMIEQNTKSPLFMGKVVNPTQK
Assay: Biochemical Assay (Z-AAT Elastase Activity Assay)
Details: purified Z-AAT protein from human plasma and purified human neutrophil elastase; 1 hour pre-incubation with compound
pIC50: −log10 of the molar value.
Reported pIC50 values for the following compounds.

[[record]]
compound = "CC(C)c1c([C@H]2CC[C@H](C(=O)O)CC2)c2cc3[nH]ncc3cc2n1-c1ccc(F)c(F)c1"
assayed_system = "Z-AAT (Homo sapiens, UniProt P01009, E366K)"
experimental_value = "< 4.52"

[[record]]
compound = "COc1cc(-n2c(C(C)(C)CC#N)c([C@H]3CC[C@@H](C(=O)O)CC3)c3cc4[nH]ncc4cc32)ccc1F"
assayed_system = "Z-AAT (Homo sapiens, UniProt P01009, E366K)"
experimental_value = "< 5.52"

[[record]]
compound = "CC(C)c1c(CC2(C(=O)O)CC2)c2nc3[nH]ncc3cc2n1-c1ccc(F)c(F)c1"
assayed_system = "Z-AAT (Homo sapiens, UniProt P01009, E366K)"
experimental_value = "< 4.52"

[[record]]
compound = "COc1cc(-n2c(C(C)(C)CC#N)c([C@H]3CC[C@H](C(=O)O)CC3)c3cc4[nH]ncc4cc32)ccn1"
assayed_system = "Z-AAT (Homo sapiens, UniProt P01009, E366K)"
experimental_value = "< 4.52"

[[record]]
compound = "CC(C)c1c(C2CCC(C(=O)O[C@@H]3O[C@H](C(=O)O)[C@@H](O)[C@H](O)[C@H]3O)CC2)c2nc3[nH]ncc3cc2n1-c1ccc(F)c(F)c1 (some centres unmarked)"
assayed_system = "Z-AAT (Homo sapiens, UniProt P01009, E366K)"
experimental_value = "< 5.52"


Entry COc1cc(-n2c(C3CCOCC3)c([C@H]3CC[C@H](C(=O)O)CC3)c3c(F)c4[nH]ncc4cc32)ccc1F , Z-AAT (Homo sapiens, UniProt P01009, E366K) data, pIC50 value: < 5.52

Entry CC(C)c1c(C[C@H](O)C(=O)O)c2cc3[nH]ncc3cc2n1-c1ccc(F)c(F)c1 , Z-AAT (Homo sapiens, UniProt P01009, E366K) data, pIC50 value: < 4.52

Entry [2H]c1c([2H])c(-n2c(C(C)C)c(CCC(=O)O[C@@H]3O[C@H](C(=O)O)[C@@H](O)[C@H](O)[C@H]3O)c3cc4[nH]ncc4cc32)c([2H])c([2H])c1F , Z-AAT (Homo sapiens, UniProt P01009, E366K) data, pIC50 value: < 4.52

Entry [2H]C([2H])([2H])Oc1cc(-n2c(C(C)C)c([C@H]3CC[C@H](C(=O)O)CC3)c3nc4[nH]ncc4cc32)ccc1F , Z-AAT (Homo sapiens, UniProt P01009, E366K) data, pIC50 value: < 4.52

Entry C[C@]1(C(=O)O)C[C@@H](c2c(C3CCCOC3)n(-c3ccc(F)c(F)c3)c3cc4cn[nH]c4cc32)C1 (some centres unmarked) , Z-AAT (Homo sapiens, UniProt P01009, E366K) data, pIC50 value: < 4.52

----------
Biological target: Z-AAT (Homo sapiens, UniProt P01009, E366K)
Experiment: AAT Function Assay (MSD Assay NL20-SI Cell Line)
Conditions: NL20 human bronchial epithelial cells expressing human Z-AAT; functionally active AAT measured as complex with hNE (MSD); read-out: NL20 Functional EC50
Source text: A. AAT Function Assay (MSD Assay NL20-SI Cell Line) Alpha-1 antitrypsin (AAT) is a SERPIN (serine protease inhibitor) that inactivates enzymes by binding to them covalently. This assay measured the amount of functionally active AAT in a sample in the presence of the disclosed compounds 1-46 and 74-96 by determining the ability of AAT to form an irreversible complex with human neutrophil Elastase (hNE). […]
pEC50: −log10 of the molar value.
PROPERTY_LABEL: pEC50

[[record]]
molecule = "CC(C)c1c(C[C@@H](O)C(=O)O)c2cc3[nH]ncc3cc2n1-c1ccc(F)c(F)c1 [Compound 3]"
experimental_value = "< 5.52"

[[record]]
molecule = "[2H]C([2H])([2H])Oc1cc(-n2c(C(C)C)c([C@H]3CC[C@H](C(=O)O)CC3)c3nc4[nH]ncc4cc32)ccc1F [Compound 89]"
experimental_value = "> 5.94"

[[record]]
molecule = "COc1cc(-n2c(C(C)(C)CC#N)c([C@H]3CC[C@H](C(=O)O)CC3)c3cc4[nH]ncc4cc32)ccn1 [Compound 42]"
experimental_value = "< 5.52"


pEC50 reported for this molecule O=C(O)[C@H]1C[C@@H](c2c(C3CCCOC3)n(-c3ccc(F)c(F)c3)c3cc4cn[nH]c4cc32)C1 (stereo partly shown) [Compound 26] : < 5.52
